Value source: patent US10494402B2

System: rat mesenchymal stem cells
Assay: Adipogenesis Assay 1 (IBMX/dexamethasone priming, peptide replaces insulin; Oil Red O or BODIPY)
Assay type: cell-based
Conditions: Assay 1; 0.5, 5, and 50 μg/ml over 3 weeks
measured_metric: adipogenic activity, Oil Red O, fold change relative to negative control

SIMMSR = weakly adipogenic
STRMSR = weakly adipogenic
STTMSR = weakly adipogenic

====

For each of the substances below, state its Specific activity (activity/1000 daltons).
Test system: rat mesenchymal stem cells
Test: Adipogenesis Assay 1 (IBMX/dexamethasone priming, peptide replaces insulin; Oil Red O or BODIPY)
Type: cell-based
Details: Assay 1
Express your answer as a number followed by its unit.

Solved entries (count: 3):
KLKDENSQLKSEVSK [peptide B] = 1.0 activity/1000 daltons
KSEVSK [KSEVSK 6-mer] = 3.76 activity/1000 daltons
SQLKSEVSK = 2.11 activity/1000 daltons

Now for a further substance.
Notebook: LKSEVSK , Specific activity (activity/1000 daltons) read as 2.26 activity/1000 daltons
